test system: NCI-H226; assay: NCI tumour cell line growth inhibition, 48 h
Activity calls are given as the source filed them. Rule as the data show it: active = GI50 up to about 1.1 µM and inactive = higher.
Outcome field: choose from True for active, False for inactive

compound=C=CCn1c2ccccc2[n+]2cc([N+](=O)[O-])ccc12 assigned_class=False
compound=Cc1cccc(C)c1NC(=S)NC=C(C(N)=O)C(N)=O assigned_class=False
compound="CCN(CC)CCC1CCCCN1CC(=O)N1c2ccccc2NC(=O)c2ccccc21 (stereo not given)" assigned_class=False

Query string: Can you look up the reported call for "COc1ccc2nc3c(C)cc4ccccc4n3c2c1" for me?
Result string: False

Query string: Repeat with CC(C)CC1C(=O)NCCC(NC(=O)C(Cc2ccc(OC(C)(C)C)cc2)NC(=O)OC(C)(C)C)C(=O)NC(Cc2ccccc2)C(=O)NC(Cc2ccccc2)NC1=O (stereo not given)
Result string: False

Query string: Repeat with "O=c1oc2ccc3ccccc3c2cc1-c1nc2ccccc2s1"
Result string: False

Query string: Repeat with "COc1cc2c(c(OC)c1OC)-c1ccc(OC)c(=O)cc1[C@@H](NC(=O)c1ccccc1)CC2"
Result string: True

Query string: Repeat with "O=C1c2ccccc2C(=O)N1C/C=N/NS(=O)(=O)c1ccc(Br)cc1"
Result string: False

Query string: Repeat with "CO[C@@H]1[C@H](O)CC[C@]2(CO2)[C@H]1[C@@]1(C)O[C@@H]1CC=C(C)C"
Result string: False

Query string: Repeat with "N#C/C(=C1\OC(=O)C(c2ccc(Br)cc2)=C1O)c1ccc(Br)cc1"
Result string: False
